These data points were gathered from patent US9200046B2.

biological target: Nrf2-Keap1 complex (Homo sapiens, UniProt Q14145); assay: cell-based; type: cell-based; conditions: 3 h, read-out: Activation 100 nL
Sequence (Q14145 whole entry, one chain of several): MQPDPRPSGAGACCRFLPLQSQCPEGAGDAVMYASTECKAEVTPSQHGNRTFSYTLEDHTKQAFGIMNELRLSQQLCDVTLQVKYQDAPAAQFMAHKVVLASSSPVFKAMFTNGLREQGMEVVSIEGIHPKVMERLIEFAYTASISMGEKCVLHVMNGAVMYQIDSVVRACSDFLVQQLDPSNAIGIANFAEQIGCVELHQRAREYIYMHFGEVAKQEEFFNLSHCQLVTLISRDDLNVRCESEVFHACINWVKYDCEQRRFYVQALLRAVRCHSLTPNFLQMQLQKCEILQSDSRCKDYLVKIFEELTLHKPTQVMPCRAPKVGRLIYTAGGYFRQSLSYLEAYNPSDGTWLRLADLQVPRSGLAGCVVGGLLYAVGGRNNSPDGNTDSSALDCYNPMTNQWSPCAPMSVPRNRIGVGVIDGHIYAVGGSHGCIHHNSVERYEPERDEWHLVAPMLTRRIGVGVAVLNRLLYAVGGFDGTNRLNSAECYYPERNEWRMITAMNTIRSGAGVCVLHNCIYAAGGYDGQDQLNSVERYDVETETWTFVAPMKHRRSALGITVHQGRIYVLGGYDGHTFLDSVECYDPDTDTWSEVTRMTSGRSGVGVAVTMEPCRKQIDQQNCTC
property.measured: activation at 16 µM (%)
Number only, in %; omit the unit.

# compound, activation at 16 µM [%]
records = [
    ("Cn1cnc([N+](=O)[O-])c1Sc1[nH]cnc2ncnc1-2 [AZATHIOPRINE, reference compound]", 49),
    ("COC(=O)Nc1nc2cc(C(=O)c3cccs3)ccc2[nH]1 [NOCODAZOLE, reference compound]", 28),
    ("COc1cc2c(c(OC)c1OC)-c1ccc(=O)c(O)cc1[C@@H](NC(C)=O)CC2 [COLCHICEINE]", 35),
]

Kindly review the next compound as well.
Exercise: Please look at this compound and report its activation at 16 µM: CC1(C)C2CC(=O)O[C@@]3(C)C4=CC(=O)O[C@@H](c5ccoc5)[C@]4(C)CCC3[C@@]2(C)C=C[C@H]1O (stereo partly shown) [DEOXYANDIROBINLACTONE]
Solution: 40

----------
target: Nrf2-Keap1 complex (Homo sapiens, UniProt Q14145); experiment: cell-based; type: cell-based; conditions: 3 h, read-out: Activation 100 nL
Where a name gives a salt, the structure may show the parent alone.
So basically, the class depends on measured activation at 16 µM, and the ranges are bucket A: < 50%; bucket B: ≥ 50% and < 90%; bucket C: ≥ 90%

# compound, tested.on, group
rows = [
    ("CC(CCc1ccccc1)NC(C)C(O)c1ccc(O)cc1 (centres unmarked) [NYLIDRINHYDROCHLORIDE, reference compound]", "Nrf2-Keap1 complex (Homo sapiens, UniProt Q14145)", "bucket A"),
    ("CC(C)c1cccc(=O)c(O)c1 [HINOKITIOL]", "Nrf2-Keap1 complex (Homo sapiens, UniProt Q14145)", "bucket A"),
    ("CC(=O)O[C@@H]1C[C@H]2C(C)(C)C(=O)CC[C@]2(C)[C@H]2CC[C@@]3(C)[C@H](c4ccoc4)OC(=O)[C@H]4O[C@]43[C@@]21C [DIHYDROGEDUNIN]", "Nrf2-Keap1 complex (Homo sapiens, UniProt Q14145)", "bucket C"),
    ("CCOC(=O)CCC(=O)O[C@H]1[C@H](O[C@@H]2[C@@H](C)[C@H](O[C@H]3C[C@@](C)(OC)[C@@H](O)[C@H](C)O3)[C@@H](C)C(=O)O[C@H](CC)[C@@](C)(O)[C@H](O)[C@@H](C)C(=O)[C@H](C)C[C@@]2(C)O)O[C@H](C)C[C@@H]1N(C)C [ERYTHROMYCINETHYLSUCCINATE, reference compound]", "Nrf2-Keap1 complex (Homo sapiens, UniProt Q14145)", "bucket A"),
    ("O=C1C=C(O)C(=O)c2ccccc21 [LAWSONE]", "Nrf2-Keap1 complex (Homo sapiens, UniProt Q14145)", "bucket B"),
]

Exercise: Band for O=c1c(O)c(-c2ccc(O)c(O)c2)oc2cc(O)ccc12 [FISETIN] ?
Solution: bucket C

Exercise: Hey, which category is COc1ccc(/C=C/C(=O)c2cc(O)ccc2O)cc1 [2′,5′-DIHYDROXY-4-METHOXYCHALCONE] in, do you know?
Solution: bucket C

Exercise: Which class does CC(C)=CCC1=C(O)C(=O)c2ccccc2C1=O [LAPACHOL] fall in?
Solution: bucket A

Exercise: State the class of the compound shown: O=c1c(O)c(-c2ccccc2)oc2cccc(O)c12 [3,5-DIHYDROXYFLAVONE]
Solution: bucket B

Exercise: GET /class?item= ClC1=C(Cl)C2(Cl)C3C(Cl)C(Cl)CC3C1(Cl)C2(Cl)Cl (centres unmarked) [CHLORDANE]
Solution: bucket C

Exercise: Form field 'band' for C[C@]12C=CC(=O)C=C1CC[C@@H]1[C@@H]2[C@@H](O)C[C@@]2(C)[C@H]1CC[C@]2(O)C(=O)CO [PREDNISOLONE, reference compound]
Solution: bucket A

Exercise: Category of C=C(C)[C@H]1Cc2c(ccc3c2O[C@@H]2COc4cc(OC)c(OC)cc4[C@@H]2C3=O)O1 [ROTENONE] :
Solution: bucket A

Exercise: Any idea which band COC(=O)Nc1nc2cc(C(=O)c3ccccc3)ccc2[nH]1 [MEBENDAZOLE, reference compound] is in?
Solution: bucket B

----------
target: Nrf2-Keap1 complex (Homo sapiens); experiment: cell-based; format: cell-based
property.measured: 200 nL (luminescence)

# example entries with known answers
# compound, 200 nL (luminescence)
records = [
    ("COc1c(O)cc2oc3cc(O)c(CC=C(C)C)c(O)c3c(=O)c2c1CC=C(C)C", 16),
    ("Nc1ncnc2c1ncn2[C@@H]1O[C@H](CO)[C@@H](O)[C@H]1O [ADENOSINE, reference compound]", 760),
    ("O=C1C=C(O)C(=O)c2ccccc21", 1140),
    ("Cn1cnc([N+](=O)[O-])c1Sc1[nH]cnc2ncnc1-2 [AZATHIOPRINE, reference compound]", 1804),
    ("O=C(/C=C/c1ccc(O)cc1)c1ccc(O)cc1O", 2364),
]

Exercise: Please look at this compound and report its 200 nL (luminescence): O=C1OCCN1/N=C/c1ccc([N+](=O)[O-])o1 [FURAZOLIDONE, reference compound]
Solution: 1288

Exercise: Return value of 200 nL (luminescence) for input O=C(O)C(S)C(S)C(=O)O (stereo not shown) [2,3-DIMERCAPTOSUCCINICACID, reference compound] , no commentary.
Solution: 2760

----------
target: Nrf2-Keap1 complex (Homo sapiens, UniProt Q14145); test: cell-based; format: cell-based; conditions: Table 2; 100 nL compound; screen run at 16 and 32 μM, 3 hr
Some molecules, each annotated with its measured 100 nL (luminescence).

# molecule, measured
data = [
    ("COc1cc(/C=C/CO)ccc1O [CONIFERYLALCOHOL]", 2032),
]

Exercise: Using the record for CCc1cccc(CC)c1N(COC)C(=O)CCl [ALACHLOR] , state its measured 100 nL (luminescence).
Solution: 3852

Exercise: Indicate its recorded 100 nL (luminescence); the molecule in question is CC(=O)O[C@@H]1C[C@H]2C(C)(C)C(=O)CC[C@]2(C)[C@H]2CC[C@@]3(C)[C@H](c4ccoc4)OC(=O)[C@H]4O[C@]43[C@@]21C [DIHYDROGEDUNIN]
Solution: 1866

----------
target: Nrf2-Keap1 complex (Homo sapiens, UniProt Q14145); experiment: cell-based; type: cell-based; details: Table 2; 100 nL compound; screen run at 16 and 32 μM, 3 hr
Note to self: values exactly at 1000 are MET. So 100 nL (luminescence) at or above 1000 is MET, below is NOT MET.

# compound, group
data = [
    ("CC1(C)[N+]([O-])=[N+]([O-])C1(C)Br (stereo not drawn)", "MET"),
]

Exercise: Hello, I need to know if `COc1cc([C@@H]2c3cc4c(cc3[C@H](O)[C@H]3COC(=O)[C@@H]23)OCO4)cc(OC)c1OC` has measured 100 nL (luminescence) not below 1000. Thanks!
Solution: NOT MET

Exercise: Quick check: does COc1c(C)c2c(c(O)c1C/C=C(\C)CCC(=O)O)C(=O)OC2 [MYCOPHENOLICACID, reference compound] have 100 nL (luminescence) greater than or equal to 1000?
Solution: NOT MET

----------
target: Nrf2-Keap1 complex (Homo sapiens, UniProt Q14145); assay: cell-based; type: cell-based; details: Table 2; 100 nL compound; screen run at 16 and 32 μM, 3 hr
Counter-ions that a name gives are not always drawn.
100 nL (luminescence) listing for selected molecules.
// keep it numeric: no unit symbol after the value

# molecule, measured
data = [
    ("CC1(C)C2CC(=O)O[C@@]3(C)C4=CC(=O)O[C@@H](c5ccoc5)[C@]4(C)CCC3[C@@]2(C)C=C[C@H]1O (some centres unmarked)", 964),
    ("COc1ccc2c(c1)OCC(=Cc1ccc(O)c(O)c1)C2=O", 4822),
    ("COc1cc([C@@H]2c3cc4c(cc3[C@@H](O[C@@H]3O[C@@H]5CO[C@@H](C)O[C@H]5[C@H](O)[C@H]3O)[C@H]3COC(=O)[C@H]23)OCO4)cc(OC)c1O [ETOPOSIDE, reference compound]", 1180),
]

Exercise: Write down 100 nL (luminescence) measured for item O=C(C=C(O)c1ccccc1)c1ccccc1O [2′,beta-DIHYDROXYCHALCONE]
Solution: 2064

Exercise: Annotate the molecule CC1(C)C(C(Cl)Cl)C2(Cl)C(Cl)C(Cl)C1(Cl)C2(Cl)Cl (centres unmarked) with its measured 100 nL (luminescence).
Solution: 5648

Exercise: Return the recorded 100 nL (luminescence) value; entry: `CSc1nc(NC(C)C)nc(NC(C)C)n1`
Solution: 1264

Exercise: Output measured 100 nL (luminescence) for this item: NCCc1cc(O)c(O)cc1O [OXIDOPAMINEHYDROCHLORIDE]
Solution: 1676
